From: paper PMC8438977

Test system: T. brucei rhodesiense (STIB-900)
Assay: Anti-trypanosomal assay (Alamar Blue, 72 h)
Type: cell-based, Trypanosoma brucei rhodesiense
Settings: Trypanosoma brucei, RHODESIENSE; pure compounds and control; 72 h; read-out: T. br (IC50 μM)
Method: T. brucei rhodesiense (STIB-900) was maintained in Minimal Essential Medium (MEM) with Earle’s salts supplemented with 3 g/L sodium bicarbonate, 4.5 g/L glucose, 25 mM HEPES, pH 7.3, 0.05 mM bathocuproinedisulfonic acid disodium salt, 1.5 mM L-cysteine, 1 mM hypoxanthine, 0.16 mM thymidine, 1 mM sodium pyruvate, 0.2 mM 2-mercaptoethanol, 1% MEM non-essential amino acid, and 15% heated fetal bovine serum, at 37 °C in a 5% CO2 incubator. […]

compound	unit	IC50
C=C(C)C1Cc2c(ccc3c2O[C@@H]2COc4cc(OC)c(OC)cc4[C@]2(O)C3=O)O1 (some centres unmarked) [Compound 21, 12a-hydroxyrotenone]	µM	8.63
O=C1c2cc3ccoc3cc2O[C@@H]2COc3cc4c(cc3[C@H]12)OCO4	µM	18.7
